Below are pIC50 measurements against Tyrosine-protein kinase JAK3 (Homo sapiens) drawn from the literature.
pIC50: −log10 of the molar value.

Check out these entries, answers already filled in.
{"columns": ["COMPOUND", "VAL"],
 "data": [
  ["Cc1cnc2nc1Nc1cccc(c1)CCCNC(=O)c1ccc(cc1S(C)(=O)=O)-c1cnc(F)c(c1)N2", "7.00 to 7.96"],
  ["CCC(CC)n1cc(-c2nc(-c3cnn(C[C@H](O)[C@H](C)O)c3)cn3nccc23)cn1", "5.00 to 6.00"],
  ["CCOC(=O)N1CCC[C@@H](Nc2n[nH]c3nccc(Oc4ccc(C(=O)Nc5cc(C)ccn5)cc4)c23)C1", "< 5.00"],
  ["O=C(Nc1cc[nH]n1)c1ccc(-c2ccnc(Nc3ccc(N4CCOCC4)cc3)n2)cc1", "> 6.30"],
  ["C=CC(=O)N(C)c1cc(Nc2ncc(Cl)c(NCCCNC(=O)c3ccc(F)cc3)n2)ccc1F", 7.96]
]}

Prompt: Field request: pIC50 | item: `O=C(CC(F)(F)F)N1CCCN(Nc2ncnc3[nH]ccc23)CC1`
Completion: < 6.00

Prompt: NC(=O)c1cnc(Nc2ccc3c(c2)NC[C@H](OCC2CCCOC2)CO3)nc1NC1CC1 (stereo partly drawn) ?
Completion: 7.00 to 8.00

Prompt: `CCNC(=O)N1CCC[C@@H](Nc2n[nH]c3nccc(Oc4ccc(C(=O)Nc5cc(C)ccn5)cc4)c23)C1` ?
Completion: < 5.00

----------
Below are pIC50 measurements against Tyrosine-protein kinase JAK3 (Homo sapiens) drawn from the literature.
pIC50: −log10 of the molar value.

Check out these entries, answers already filled in.
{"columns": ["COMPOUND", "EXPERIMENTAL_SYSTEM", "pIC50"],
 "data": [
  ["Cn1cc(-c2cc3nccn3c(-c3cnn(C4(CC#N)CN(S(=O)(=O)c5ccccc5)C4)c3)n2)cn1", "Tyrosine-protein kinase JAK3 (Homo sapiens)", "< 6.00"],
  ["CCC(=O)c1cnc(Nc2ccc(C(C)NC)cn2)cc1Nc1cccc(-c2ncn(C)n2)c1OC (stereo not shown)", "Tyrosine-protein kinase JAK3 (Homo sapiens)", "≤ 6.30"],
  ["CN(C)C/C=C/C(=O)N1CCC[C@@H]1Cn1nc(-c2ccc(Oc3ccccc3)cc2)c2c(N)ncnc21", "Tyrosine-protein kinase JAK3 (Homo sapiens)", "< 5.00"]
]}

Switching to the query record.
Prompt: Field request: pIC50 | item: `CN(c1ccccc1CNc1nc(-c2cc(F)c(O)cc2CC(F)(F)F)cc2[nH]nc(-n3cccn3)c12)S(C)(=O)=O`
Completion: 6.31

----------
Below are pIC50 measurements against Tyrosine-protein kinase JAK3 (Homo sapiens, UniProt P52333) drawn from the literature.
pIC50: −log10 of the molar value.

{"columns": ["COMPOUND", "pIC50"],
 "data": [
  ["CCC(=O)c1cnc(Nc2cnc(O[C@@H]3CCN(CC(F)(F)F)C3)cn2)cc1Nc1cccc(-c2ncn(C)n2)c1OC", "≤ 6.30"],
  ["Cc1nccc(-c2cnc3[nH]ccc3c2N[C@@H]2C[C@H](C)CN(C(=O)CC#N)C2)n1", "≥ 8.00"],
  ["Fc1ccc2ncn(-c3ncc4nc(-c5cnc[nH]5)n(C5CCOCC5)c4n3)c2c1", "6.00 to 7.00"]
]}

Prompt: Tyrosine-protein kinase JAK3 (Homo sapiens, UniProt P52333) / pIC50 / `Cc1cnc2nc1NCCCCCNC(=O)c1ccc(c(S(C)(=O)=O)c1)-c1cnc(F)c(c1)N2` : value?
Completion: 5.00 to 6.00

Prompt: `Oc1ccc(F)c(Cc2c[nH]c3ncc(Br)cc23)c1F` ?
Completion: ≥ 5.00

Prompt: `O=C(CN1CCNCC1)Nc1cccc(-c2cnc3ccccc3n2)c1` ?
Completion: 4.89

Prompt: `CC#CCCn1cc(-c2nc(-c3cnn(C)c3)cc3nccn23)cn1` ?
Completion: < 6.00

Prompt: `CCC(=O)c1cnc(Nc2cccc(C(N)=O)n2)cc1Nc1cccc(-c2ncn(C)n2)c1OC` ?
Completion: ≤ 6.30

Prompt: `CCOC(=O)Cn1cc(Nc2ncc3ccn(C[C@H]4CC[C@@H](O)CC4)c3n2)cn1` ?
Completion: > 7.00

Prompt: `C=CC(=O)N1CC[C@@H](Nc2nc(Nc3cnn(C)c3)nc3ccsc23)C1` ?
Completion: 7.00 to 8.00

Prompt: CN1CCc2ccc(-c3cc4nccn4c(-c4cnn(C(CC#N)C5CC5)c4)n3)cc2C1 (stereo not shown) ?
Completion: 6.00 to 7.00

Prompt: `Cc1cnc2nc1NCCCCCNC(=O)c1ccc(c(F)c1F)-c1cnc(F)c(c1)N2` ?
Completion: 6.00 to 7.00

Prompt: `CN(c1ncnc2[nH]ccc12)C1CC2(C1)CN(C(=O)c1ccc3c(c1)ncn3C)C2` ?
Completion: ≤ 5.00

Prompt: `Cn1cc(-c2cc3nccn3c(-c3cnn(C4(CCF)CN(C(=O)C5CC5)C4)c3)n2)cn1` ?
Completion: < 6.00

Prompt: `COCCC(=O)N1CCC[C@@H](Nc2n[nH]c3nccc(Oc4ccc(C(=O)Nc5cc(C)ccn5)cc4)c23)C1` ?
Completion: < 5.00

Prompt: `COCC#CC(=O)N1CCC[C@@H](Nc2n[nH]c3nccc(Oc4ccc(C(=O)Nc5cc(C)ccn5)cc4)c23)C1` ?
Completion: 6.00 to 7.00

----------
Below are IC50 measurements against Tyrosine-protein kinase JAK3 (Homo sapiens) drawn from the literature.

{"columns": ["COMPOUND", "IC50"],
 "data": [
  ["CN(c1ncnc2[nH]ccc12)C1CC2(C1)CN(C(=O)c1ccc(C#N)c(F)c1)C2", "≥ 10 µM"],
  ["N#CCC(=O)N1CCC[C@@H](Nc2c(-c3nnc[nH]3)cnc3[nH]ccc23)C1", "0.01 to 0.1 µM"],
  ["CC#CC(=O)N1CC[C@@H](Nc2n[nH]c3nccc(Oc4ccc(C(=O)Nc5ncc(C)s5)cc4)c23)C1", "> 10 µM"],
  ["C[C@@H](Nc1nc(-n2cnc3ccc(F)cc32)nc2c1[nH]c(=O)n2C1CCOCC1)c1ccccc1", "> 1 µM"],
  ["C=CC(=O)N1CCC[C@@H](n2nc(-c3ccc(Oc4ccccc4F)cc3)c3cncnc32)C1", "> 0.5 µM"],
  ["CN(c1ncnc2[nH]ccc12)C1CC2(C1)CN(C(=O)CO)C2", "1 to 10 µM"],
  ["Cn1cc(-c2cc3nccn3c(-c3cnn(C4(CC#N)CN(CCCF)C4)c3)n2)cn1", "> 1 µM"],
  ["COC(=O)c1cnc2[nH]ccc2c1N[C@H]1CN(C(=O)CC#N)CC[C@H]1C", "0.01 to 0.1 µM"],
  ["CC(C)C[C@H](C)n1cc(-c2nc(-c3cnn(C[C@H](O)CO)c3)cn3nccc23)cn1", "1 to 10 µM"],
  ["O=C(NCCC1CC1)c1n[nH]c2c1CN(c1ncnc3[nH]ccc13)CC2", "< 0.1 µM"]
]}

Switching to the query record.
Prompt: Field request: IC50 | item: CCOC(=O)c1cnc2[nH]ccc2c1-c1cnn([C@H](CC#N)C2CCCC2)c1 (single isomer, unassigned; stereoisomer 1)
Completion: 0.01 to 0.1 µM

----------
Below are pIC50 measurements against UniProt P52333 drawn from the literature.
pIC50: −log10 of the molar value.

{"columns": ["MOLECULE", "pIC50"],
 "data": [
  ["CN(C)C1CCN(C(=O)c2ccc(Nc3ncc4ccn(-c5cccc(NS(=O)(=O)C(C)(C)C)c5)c4n3)cc2F)CC1", 6.53],
  ["O=C(NCCC1COC1)c1noc2c1CN(c1ncnc3[nH]ccc13)CC2", "6.30 to 7.00"],
  ["O=C(c1cc(O)ccc1F)c1c[nH]c2nccc(-c3ccccc3)c12", "≥ 5.00"]
]}

Prompt: Field request: pIC50 | item: `COCCCn1c(=O)[nH]c2c(N3CC(F)(F)C3)nc(-n3cnc4ccc(C#N)cc43)nc21`
Completion: > 7.00

----------
pIC50: −log10 of the molar value.
Below are pIC50 measurements against Tyrosine-protein kinase JAK3 (Homo sapiens) drawn from the literature.

{"columns": ["MOLECULE", "pIC50"],
 "data": [
  ["Cc1cnc2nc1Nc1cc(ccc1F)CCCNC(=O)c1ncc(cc1F)-c1cnc(F)c(c1)N2", "6.00 to 7.00"],
  ["CCn1cc(-c2cc3nccn3c(-c3cnn(C4(CC#N)CN(CC(F)(F)F)C4)c3)n2)cn1", "< 6.00"],
  ["C=CC(=O)Nc1ccc(CNc2nc(Nc3ccc(N4CCOCC4)c(F)c3)ncc2Cl)cc1", 8.46],
  ["O=C(CCl)Nc1cccc(Nc2cc(Oc3ccc(NC(=O)Nc4ccc(Cl)c(C(F)(F)F)c4)cc3)ncn2)c1", "6.00 to 7.00"],
  ["O=c1[nH]c2c(-c3cccc(Cl)c3)nc(-n3cnc4ccc(F)cc43)nc2n1C1CCOCC1", "6.00 to 7.00"],
  ["CC[C@H](C1CC1)n1cc(-c2nc(-c3cnn(C(CO)CO)c3)cn3nccc23)cn1", "5.00 to 6.00"],
  ["CC(=O)N1CCC(C(CC#N)n2cc(-c3nc(-c4cnn(C)c4)cc4nccn34)cn2)CC1 (stereo not shown)", "< 6.00"],
  ["COCCOC(=O)c1cnc2[nH]ccc2c1N[C@@H]1CCC[C@H](CCC#N)C1 (single isomer, unassigned; enantiomer 2)", "≥ 8.00"],
  ["Cn1nccc1-c1cc2c(N[C@H]3CC[C@@](C)(O)CC3)c(C(N)=O)cnn2c1", 7.20],
  ["Cc1ccc(NC(=O)c2cccc(C(F)(F)F)c2F)cc1-c1ccc2c(c1)[nH]c1ncncc12", "≥ 6.30"]
]}

Prompt: Field request: pIC50 | item: `Cc1cnc2nc1Nc1cccc(c1)CCCCNC(=O)c1ccc(cc1)-c1cnc(F)c(c1)N2`
Completion: > 8.00

Prompt: `C=CC(=O)N1CC(CNc2nc(Nc3cnn(COC)c3)nc3ccsc23)C1` ?
Completion: 7.00 to 8.00

Prompt: `N#Cc1ccc(-c2nn(CCO)c3c2CN(c2ncnc4[nH]ccc24)CC3)cc1` ?
Completion: 5.70 to 6.30

Prompt: `CC(C)C(=O)N1CC[C@H]2C[C@@H](N(C)c3ncnc4[nH]ccc34)C[C@H]2C1` ?
Completion: 6.69

Prompt: `CCc1cc(O)c(F)cc1-c1cc2[nH]nc(-c3nnc(C)[nH]3)c2c(NCc2ccccc2N(C)S(C)(=O)=O)n1` ?
Completion: 7.11

Prompt: CCC(=O)c1cnc(Nc2ccc(C(N)C(F)(F)F)cn2)cc1Nc1cccc(-c2ncn(C)n2)c1OC (stereo not shown) ?
Completion: ≤ 6.30

Prompt: `C=CC(=O)N1CC[C@@H](Nc2nc(Nc3cnn(C4CCC4)c3)nc3ccsc23)C1` ?
Completion: 7.00 to 8.00

Prompt: `CCN(c1ncc(F)cc1CNc1nc(-c2cc(F)c(O)cc2CC(F)(F)F)cc2[nH]nc(C(N)=O)c12)S(C)(=O)=O` ?
Completion: 6.76

Prompt: `CCC(=O)c1cnc(Nc2ccc(CN3CCCCC3)cn2)cc1Nc1cccc(-c2ncn(C)n2)c1OC` ?
Completion: ≤ 6.30

Prompt: `CCC[C@H](C)n1cc(-c2nc(-c3cnn(C[C@@H](O)CO)c3)cn3nccc23)cn1` ?
Completion: 5.00 to 6.00

Prompt: `Cc1ccnc(NC(=O)c2ccc(Oc3ccnc4[nH]nc(N[C@@H]5CCCN(C(=O)c6ccc(F)cc6)C5)c34)cc2)c1` ?
Completion: < 5.00

Prompt: `CN(C)c1ncc(-c2nc3cnc(-n4cnc5ccc(C#N)cc54)nc3n2C2CCOCC2)cn1` ?
Completion: > 7.00

Prompt: `CC1(CNC(=O)c2noc3c2CN(c2ncnc4[nH]ccc24)CC3)CC(F)(F)C1` ?
Completion: > 7.00
